Taken from patent US20250042889A1.

# key: entry, value: Vd
METHOD_SUMMARY: in vivo
TEST_CONDITIONS: male, CD1, mouse, in vivo, iv, 1 mg/kg
# number only, unit L/kg dropped from output

Examples from the recorded data:
CNc1cncc(C(=O)N2C[C@H](Nc3c(C(=O)N4C[C@@H](C)O[C@@H](C)C4)cc(Br)cc3[N+](=O)[O-])C[C@@H](OC)C2)c1	1.32
CNc1cncc(C(=O)N2CCC[C@@H](Nc3c(C(=O)N4C5CCCC4COC5)cc(Br)cc3[N+](=O)[O-])C2)c1	1.38
CNc1cncc(C(=O)N2CCC[C@@H](Nc3c(C(=O)N4C[C@@H](C)O[C@@H](C)C4)cc(Br)cc3[N+](=O)[O-])C2)c1	1.02
CNc1cncc(C(=O)N2CCC[C@@H](Nc3c(C(=O)N4CCO[C@H](C)C4)cc(Br)cc3[N+](=O)[O-])C2)c1	1.28
O=C(c1cc(Br)cc([N+](=O)[O-])c1N[C@@H]1CCCN(C(=O)[C@H]2CNCC(F)(F)C2)C1)N1CCCCC1	2.1

Input: Report Vd for CNc1cncc(C(=O)N2C[C@H](Nc3c(C(=O)N4C[C@@H](C)O[C@@H](C)C4)cc(Br)cc3[N+](=O)[O-])[C@@H](OC)C2)c1 please.
Output: 7.1

Input: Record: CNc1cncc(C(=O)N2CCC[C@@H](Nc3c(C(=O)N4CCOC(F)(F)C4)cc(Br)cc3[N+](=O)[O-])C2)c1
Output: 1.06

Input: Record: CNc1cncc(C(=O)N2CCC[C@@H](Nc3c(C(=O)N4CCCC(F)(F)C4)cc(Br)cc3[N+](=O)[O-])C2)c1
Output: 1.7

Input: Record: CNc1cncc(C(=O)N2CCC[C@@H](Nc3c(C(=O)N4CCCCC4)cc(Br)cc3[N+](=O)[O-])C2)c1
Output: 1.56

====

TARGET_OF_ASSAY: SARS-COV-2 3CLpro/Mpro protease (Severe acute respiratory syndrome coronavirus 2 (2019-nCoV) (SARS-CoV-2))
METHOD_SUMMARY: Inhibitory effect on SARS-COV-2 3CLpro/Mpro protease by fluorescence resonance energy transfer
Format: biochemical
TEST_CONDITIONS: activity intervals A-D, read-out: IC50 (nM), Inhibition on SARS-CoV-2 3CLpro/Mpro protease
PARAMETER: IC50

Examples from the recorded data:
O=C1C[C@H](C(=O)N2CCC[C@@H](Nc3c(C(=O)N4CCCCC4)cc(Br)cc3[N+](=O)[O-])C2)c2ccccc2N1	10 to 50 nM
CNc1cncc(C(=O)N2C[C@H](Nc3c(C(=O)N4CCC(F)(F)CC4)cc(Br)cc3[N+](=O)[O-])[C@@H](OC)C2)c1	10 to 50 nM
CNc1cncc(C(=O)N2CCC[C@@H](Nc3c(C(=O)N4[C@H](C)COC[C@@H]4C)cc(Br)cc3[N+](=O)[O-])C2)c1	10 to 50 nM
CNc1cncc(C(=O)N2CCC[C@@H](Nc3c(C(=O)N4CC(O)CC(F)(F)C4)cc(Br)cc3[N+](=O)[O-])C2)c1 (stereo partly drawn)	10 to 50 nM
CNc1cncc(C(=O)N2C[C@H](Nc3c(C(=O)N4C[C@@H](C)O[C@@H](C)C4)cc(Br)cc3[N+](=O)[O-])C[C@H]2C#Cc2cnoc2)c1	100 to 200 nM

Please examine the following record next.
Input: Report IC50 for COCCN1CCN(C(=O)c2cc(Br)cc([N+](=O)[O-])c2N[C@@H]2CCOC[C@@H]2NC(=O)c2cncc3ccccc23)CC1 please.
Output: 10 to 50 nM

====

TARGET_OF_ASSAY: SARS-COV-2 3CLpro/Mpro protease (Severe acute respiratory syndrome coronavirus 2 (2019-nCoV) (SARS-CoV-2), UniProt P0DTD1)
METHOD_SUMMARY: Inhibitory effect on SARS-COV-2 3CLpro/Mpro protease by fluorescence resonance energy transfer
Type: biochemical
TEST_CONDITIONS: activity intervals A-D, read-out: IC50 (nM), Inhibition on SARS-CoV-2 3CLpro/Mpro protease
PARAMETER: IC50

Examples from the recorded data:
Cc1cc(C(=O)N2C[C@H](Nc3c(C(=O)N4CCN(CC(F)(F)F)C(=O)C4)cc(Br)cc3[N+](=O)[O-])C3(CC3)C2)cc(=O)[nH]1	10 to 50 nM
O=C(N[C@H]1CCOC[C@H]1Nc1c(C(=O)N2CCCCC2)cc(Br)cc1[N+](=O)[O-])c1cncc2ccccc12	< 10 nM

Please examine the following record next.
Input: Report IC50 for CNc1cncc(C(=O)N2C[C@H](Nc3c(C(=O)N4C[C@@H](C)O[C@@H](C)C4)cc(Br)cc3[N+](=O)[O-])C[C@H]2c2nnco2)c1 please.
Output: 50 to 100 nM

====

METHOD_SUMMARY: Pharmacokinetics in vivo experiment in cynomolgus macaques
TEST_CONDITIONS: male, cynomolgus monkey, plasma; cynomolgus macaque, oral administration, 10 mg/kg
PARAMETER: half-life (min)
# number only, unit min dropped from output

CNc1cncc(C(=O)N2CCC[C@@H](Nc3c(C(=O)N4C[C@@H](C)O[C@@H](C)C4)cc(Br)cc3[N+](=O)[O-])C2)c1 [Example 34]	35

Please examine the following record next.
Input: Report half-life for CNc1cncc(C(=O)N2CCC[C@@H](Nc3c(C(=O)N4CCCCC4)cc(Br)cc3[N+](=O)[O-])C2)c1 [Example 31] please.
Output: 29.4

====

TARGET_OF_ASSAY: SARS-COV-2 3CLpro/Mpro protease (Severe acute respiratory syndrome coronavirus 2 (2019-nCoV) (SARS-CoV-2), UniProt P0DTD1)
METHOD_SUMMARY: Inhibitory effect on SARS-COV-2 3CLpro/Mpro protease by fluorescence resonance energy transfer
Assay type: biochemical
TEST_CONDITIONS: activity intervals A-D, read-out: IC50 (nM), Inhibition on SARS-CoV-2 3CLpro/Mpro protease
PARAMETER: IC50

Examples from the recorded data:
CNc1ccc2c(C(=O)N3CCC[C@@H](Nc4c(C(=O)N5C[C@@H](C)O[C@@H](C)C5)cc(Br)cc4[N+](=O)[O-])C3)cncc2c1	10 to 50 nM
CNc1cncc(C(=O)N2C[C@H](Nc3c(C(=O)N4CCN(CCOC)CC4)cc(Br)cc3[N+](=O)[O-])C3(CC3)C2)c1	10 to 50 nM
CNc1cncc(C(=O)N2CCC[C@@H](Nc3c(C(=O)N4CCOC(F)(F)C4)cc(Br)cc3[N+](=O)[O-])C2)c1	10 to 50 nM
O=C(c1cncnc1)N1CCC[C@@H](Nc2c(C(=O)N3CCCCC3)cc(Br)cc2[N+](=O)[O-])C1	50 to 100 nM

Input: Report IC50 for CNc1cncc(C(=O)N2C[C@H](Nc3c(C(=O)N4C[C@@H](C)O[C@@H](C)C4)cc(Br)cc3[N+](=O)[O-])C[C@H]2C(=O)NCc2ccncc2)c1 please.
Output: 50 to 100 nM

Input: Record: CNc1cncc(C(=O)N2CCC[C@@H](Nc3c(C(=O)N4CC=C(C)CC4)cc(Br)cc3[N+](=O)[O-])C2)c1
Output: 10 to 50 nM

====

TARGET_OF_ASSAY: SARS-COV-2 3CLpro/Mpro protease (Severe acute respiratory syndrome coronavirus 2 (2019-nCoV) (SARS-CoV-2))
METHOD_SUMMARY: Inhibitory effect on SARS-COV-2 3CLpro/Mpro protease by fluorescence resonance energy transfer
Assay type: biochemical
TEST_CONDITIONS: activity intervals A-D, read-out: IC50 (nM), Inhibition on SARS-CoV-2 3CLpro/Mpro protease
PARAMETER: IC50

Examples from the recorded data:
O=C(N[C@H]1CCCC[C@H]1Nc1c(C(=O)N2CCC(N3CCOCC3)CC2)cc(Br)cc1C(F)(F)F)c1cncc2cc(Cl)ccc12 [Example 109]	10 to 50 nM
CNc1cncc(C(=O)N2CCC[C@@H](Nc3c(C(=O)N4CCCC(F)(F)C4)cc(Br)cc3[N+](=O)[O-])C2)c1 [Example 36]	10 to 50 nM
Cc1cc(C(=O)N2C[C@H](Nc3c(C(=O)N4CC5C(C4)C5(C)C)cc(Br)cc3[N+](=O)[O-])C3(CC3)C2)cc(=O)[nH]1 (stereo partly drawn) [Example 88]	10 to 50 nM
CNc1cncc(C(=O)N[C@H]2CCOC[C@H]2Nc2c(C(=O)N3C[C@H](C)O[C@@H](C)C3)cc(Br)cc2[N+](=O)[O-])c1 [Example 224]	10 to 50 nM
O=C(c1cc(Br)cc([N+](=O)[O-])c1N[C@@H]1CCCN(C(=O)c2cc(=O)[nH]c3cc(Cl)ccc23)C1)N1CCOCC1 [Example 117]	10 to 50 nM
C[C@@H]1CN(C(=O)c2cc(Br)cc([N+](=O)[O-])c2N[C@@H]2COCC[C@@H]2NC(=O)c2cncc3cc(Cl)ccc23)C[C@H](C)N1 [Example 228]	10 to 50 nM
C[C@H]1CN(C(=O)c2cc(Br)cc([N+](=O)[O-])c2N[C@H]2CN(C(=O)c3cncc(Br)c3)CC2(C)C)C[C@H](C)O1 [Example 225]	< 10 nM
CC1CC(C(=O)N2CCC[C@@H](Nc3c(C(=O)N4C[C@@H](C)O[C@@H](C)C4)cc(Br)cc3[N+](=O)[O-])C2)CC(=O)N1 (stereo partly drawn) [Example 179]	50 to 100 nM
CNc1cncc(C(=O)N2CCC[C@@H](Nc3c(C(=O)N4C[C@@H]5C[C@H]4CO5)cc(Br)cc3[N+](=O)[O-])C2)c1 [Example 291]	10 to 50 nM
CC(=O)Nc1cncc(C(=O)N2CCC[C@@H](Nc3c(C(=O)N4CCCCC4)cc(Br)cc3[N+](=O)[O-])C2)c1 [Example 216]	10 to 50 nM

Input: Report IC50 for CC1(O)CN(C(=O)c2cncc(Br)c2)C[C@@H]1Nc1c(C(=O)N2CCCCC2)cc(Br)cc1[N+](=O)[O-] (stereo partly drawn) [Example 246] please.
Output: 10 to 50 nM

Input: Record: O=C(c1cncc(OC(F)F)c1)N1CCC[C@@H](Nc2c(C(=O)N3CCCCC3)cc(Br)cc2[N+](=O)[O-])C1 [Example 61]
Output: 50 to 100 nM

Input: Record: CNc1cncc(C(=O)N2CC(Nc3c(C(=O)N4CCC(C)(C)CC4)cc(Br)cc3[N+](=O)[O-])C(C)(C)C2)c1 (stereo not drawn) [Example 175]
Output: 10 to 50 nM

Input: Record: C#C[C@@H]1CN(C(=O)c2cc(Br)cc([N+](=O)[O-])c2N[C@@H]2CCCN(C(=O)c3cncc(NC)c3)C2)CCO1 [Example 346]
Output: 10 to 50 nM

Input: Record: CNc1cncc(C(=O)N[C@H]2CCCC[C@H]2Nc2c(C(=O)N3C[C@@H](C)O[C@@H](C)C3)cc(Br)cc2[N+](=O)[O-])c1 [Example 198]
Output: 10 to 50 nM

Input: Record: O=C(NN1CCOCC1)c1cc(Br)cc([N+](=O)[O-])c1N[C@@H]1CCCN(C(=O)c2cncc(I)c2)C1 [Example 137]
Output: 10 to 50 nM

Input: Record: CNc1cncc(C(=O)N2CCC[C@@H](Nc3c(C(=O)N4CCC(C)CC4)cc(Br)cc3[N+](=O)[O-])C2)c1 [Example 248]
Output: 10 to 50 nM

Input: Record: CN1CCN(C(=O)c2cc(Br)cc([N+](=O)[O-])c2N[C@@H]2CCCC[C@@H]2NC(=O)c2cncc3cc(Cl)ccc23)CC1 [Example 123]
Output: < 10 nM

Input: Record: [2H]C([2H])([2H])Nc1cncc(C(=O)N2CCC[C@@H](Nc3c(C(=O)N4C[C@@H](C)O[C@@H](C)C4)cc(Br)cc3[N+](=O)[O-])C2)c1 [Example 347]
Output: 10 to 50 nM

Input: Record: CNc1cncc(C(=O)N2CCC[C@@H](Nc3c(C(=O)N4Cc5c[nH]nc5C4)cc(Br)cc3[N+](=O)[O-])C2)c1 [Example 278]
Output: 10 to 50 nM

Input: Record: C[C@@H]1CN(C(=O)c2cc(Br)cc([N+](=O)[O-])c2N[C@@H]2CCCN(C(=O)c3cncc(Br)c3)C2)C[C@H](C)N1 [Example 73]
Output: 10 to 50 nM
